These data points were gathered from patent US4950676A.

- Test system: hypertensive rats
- experimental-details: arterial blood pressure of conscious spontaneously hypertensive rats (tail cuff) after oral administration
- Assay type: in vivo, rat (spontaneously hypertensive rats of the Okamoto strain)
- condition-description: Rattus norvegicus, peroral, read-out: ED20 (reduction in blood pressure in hypertensive rats by 20 mm Hg)
Assignment: determine reported ED (20 mm Hg) for the given compounds.
Kindly report the value followed by its unit.

Looking for the measured ED (20 mm Hg) of COC(=O)C1=C(C)NC(C)=C(C(=O)OCCNC2CCN3CCc4c(ccc(OC)c4OC)C3C2)C1c1cccc([N+](=O)[O-])c1 (centres unmarked) [Example 6] , can you help? 1 mg/kg

Looking for the measured ED (20 mm Hg) of COC(=O)C1=C(C)NC(C)=C(C(=O)OCCNCC2COc3ccccc3O2)C1c1cccc([N+](=O)[O-])c1 (centres unmarked) [Example 13] , can you help? 3 mg/kg

Looking for the measured ED (20 mm Hg) of COC(=O)C1=C(C)NC(C)=C(C(=O)OCCN(C)CC2COc3ccccc3O2)C1c1cccc([N+](=O)[O-])c1 (centres unmarked) [Example 11] , can you help? 3 mg/kg

Looking for the measured ED (20 mm Hg) of COc1ccc2c(c1OC)CCN1CCC(NCCOC(=O)C3=C(C)NC(C)=C(C(=O)OC(C)C)C3c3cccc([N+](=O)[O-])c3)CC21 (centres unmarked) [Example 8] , can you help? 31.5 mg/kg

Looking for the measured ED (20 mm Hg) of COc1ccc2c(c1OC)CCN1CCC(NCCCOC(=O)C3=C(C)NC(C)=C(C(=O)OC(C)C)C3c3cccc([N+](=O)[O-])c3)CC21 (centres unmarked) [Example 7] , can you help? 31.5 mg/kg
